assay: Clearance in Lewis rat at 5 mg/kg, iv; assay type: ADME, organism-based; parameters: dose 5 mg/kg, route intravenous; details: in vivo
Reported Metric: clearance (mL/min/kg)

- Fc1ccc(-c2nn3ccccc3c2-c2ccncc2)cc1 [GW434756X]: 49

* * *

target: Mitogen-activated protein kinase 14 (Homo sapiens, UniProt Q16539); experiment: Inhibition of GST-fused p38alpha expressed in Escherichia coli
Sequence (Q16539 whole entry, the tested form may be a part): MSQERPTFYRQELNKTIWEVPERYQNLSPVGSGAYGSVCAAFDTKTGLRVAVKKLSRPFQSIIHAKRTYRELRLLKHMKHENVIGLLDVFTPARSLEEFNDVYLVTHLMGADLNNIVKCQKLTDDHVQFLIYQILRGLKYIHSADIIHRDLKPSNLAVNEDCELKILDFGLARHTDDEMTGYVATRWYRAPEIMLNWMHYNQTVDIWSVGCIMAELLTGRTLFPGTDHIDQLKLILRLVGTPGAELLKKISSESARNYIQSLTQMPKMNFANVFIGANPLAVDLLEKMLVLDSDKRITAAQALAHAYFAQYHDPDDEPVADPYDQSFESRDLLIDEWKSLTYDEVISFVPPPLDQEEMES
pIC50: −log10 of the molar value.
Reported Metric: pIC50

* Cc1ccc2c(-c3ccncc3)c(-c3ccc(F)cc3)nn2c1 | 6.82
* Fc1ccc(-c2nn3cc(Cl)ccc3c2-c2ccncc2)cc1 | 6.82
* Fc1ccc(-c2nn3cc(C(F)(F)F)ccc3c2-c2ccncc2)cc1 | 6.70
* N#Cc1ccc2c(-c3ccncc3)c(-c3ccc(F)cc3)nn2c1 | 6.85
* Cc1ccn2nc(-c3ccc(F)cc3)c(-c3ccncc3)c2c1 | 6.80
* Fc1ccc(-c2nn3c(OC4CCCC4)cccc3c2-c2ccncc2)cc1 | 6.77

* * *

target: Macrophage colony-stimulating factor 1 receptor (Homo sapiens)
Sequence (P07333 whole entry): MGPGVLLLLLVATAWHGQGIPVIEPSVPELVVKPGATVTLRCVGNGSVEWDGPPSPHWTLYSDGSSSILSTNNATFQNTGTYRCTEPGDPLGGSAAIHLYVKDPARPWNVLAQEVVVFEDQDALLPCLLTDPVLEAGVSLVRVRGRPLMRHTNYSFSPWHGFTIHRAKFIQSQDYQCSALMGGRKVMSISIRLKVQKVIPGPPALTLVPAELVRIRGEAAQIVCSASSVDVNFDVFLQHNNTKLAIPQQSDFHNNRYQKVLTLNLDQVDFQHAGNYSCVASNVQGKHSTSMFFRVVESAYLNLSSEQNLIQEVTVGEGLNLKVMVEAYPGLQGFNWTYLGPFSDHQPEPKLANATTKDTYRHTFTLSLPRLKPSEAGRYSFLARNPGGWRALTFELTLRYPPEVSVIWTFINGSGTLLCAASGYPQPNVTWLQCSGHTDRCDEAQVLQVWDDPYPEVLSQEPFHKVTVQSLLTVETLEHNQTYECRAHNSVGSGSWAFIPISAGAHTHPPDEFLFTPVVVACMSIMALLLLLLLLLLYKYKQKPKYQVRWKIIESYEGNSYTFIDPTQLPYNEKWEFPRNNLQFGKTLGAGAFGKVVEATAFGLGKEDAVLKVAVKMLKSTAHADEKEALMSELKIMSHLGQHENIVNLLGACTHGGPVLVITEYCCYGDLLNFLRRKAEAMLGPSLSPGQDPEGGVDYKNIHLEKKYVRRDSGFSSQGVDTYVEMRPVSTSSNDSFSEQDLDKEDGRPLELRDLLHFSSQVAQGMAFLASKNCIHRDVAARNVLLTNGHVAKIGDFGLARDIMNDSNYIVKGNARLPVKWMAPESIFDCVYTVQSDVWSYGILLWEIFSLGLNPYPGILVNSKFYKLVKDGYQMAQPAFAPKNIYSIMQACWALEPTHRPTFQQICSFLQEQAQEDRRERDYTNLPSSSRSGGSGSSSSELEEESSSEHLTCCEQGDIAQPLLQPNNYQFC
pIC50: −log10 of the molar value.
Reported Metric: pIC50

- Fc1ccc(-c2nn3ccccc3c2-c2ccncc2)cc1 [GW434756X]: < 5.00

* * *

This section presents molecules with their documented metabolised at 0.5 h values.
experiment: Metabolic stability in rat liver S9 microsomal fraction assessed as parent compound turnover after 30 mins; format: ADME, subcellular; conditions: read-out: Stability
Reported Metric: metabolised at 0.5 h

* Fc1ccc(-c2nn3cccc(F)c3c2-c2ccncc2)cc1 | 21%
* Fc1ccc(-c2nn3cc(C(F)(F)F)ccc3c2-c2ccncc2)cc1 | 0%
* Fc1ccc(-c2nn3ccccc3c2-c2ccncc2)cc1 [GW434756X] | 27%
* Cc1ccn2nc(-c3ccc(F)cc3)c(-c3ccncc3)c2c1 | 60%
* Fc1ccc(-c2nn3cc(F)ccc3c2-c2ccncc2)cc1 | 1%
* Fc1ccc(-c2nn3c(OC4CCCC4)cccc3c2-c2ccncc2)cc1 | 8%
* Fc1ccc(-c2nn3c(OCC(F)(F)F)cccc3c2-c2ccncc2)cc1 | 0%
* Cc1cccc2c(-c3ccncc3)c(-c3ccc(F)cc3)nn12 | 43%
* Cc1ccc2c(-c3ccncc3)c(-c3ccc(F)cc3)nn2c1 | 99%
* Fc1ccc(-c2nn3c(Cl)cccc3c2-c2ccncc2)cc1 | 37%

* * *

molecular target: RAC-gamma serine/threonine-protein kinase (Homo sapiens, UniProt Q9Y243)
Sequence (Q9Y243 whole entry): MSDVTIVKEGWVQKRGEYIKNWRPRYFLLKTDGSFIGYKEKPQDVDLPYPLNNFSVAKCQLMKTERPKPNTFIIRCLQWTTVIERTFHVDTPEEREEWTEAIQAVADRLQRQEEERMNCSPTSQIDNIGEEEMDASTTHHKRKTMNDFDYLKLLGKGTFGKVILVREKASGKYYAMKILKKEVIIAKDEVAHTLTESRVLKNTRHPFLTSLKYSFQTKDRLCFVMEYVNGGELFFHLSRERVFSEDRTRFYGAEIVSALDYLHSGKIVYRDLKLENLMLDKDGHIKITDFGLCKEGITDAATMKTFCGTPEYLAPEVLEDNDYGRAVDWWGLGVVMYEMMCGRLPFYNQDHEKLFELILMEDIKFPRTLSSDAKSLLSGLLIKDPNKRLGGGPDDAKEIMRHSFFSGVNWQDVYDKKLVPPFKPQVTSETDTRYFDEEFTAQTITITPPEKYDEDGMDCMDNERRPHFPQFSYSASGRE
Reported Metric: IC50

• Fc1ccc(-c2nn3ccccc3c2-c2ccncc2)cc1 [GW434756X] = > 10 µM

* * *

assay: Clearance in Beagle dog at 1 mg/kg, iv; type: ADME, organism-based, Canis lupus familiaris; design: dose 1 mg/kg, route intravenous; details: in vivo
This section presents compounds with their documented clearance values.
Reported Metric: clearance (mL/min/kg)

- Fc1ccc(-c2nn3c(OCC(F)(F)F)cccc3c2-c2ccncc2)cc1: 17
- Fc1ccc(-c2nn3ccccc3c2-c2ccncc2)cc1 [GW434756X]: 34

* * *

This section presents compounds with their documented bioavailability values.
experiment: Bioavailability in Beagle dog at 1 mg/kg, iv; type: ADME, organism-based, Canis lupus familiaris; conditions: in vivo
Reported Metric: bioavailability (%)

* Fc1ccc(-c2nn3c(OCC(F)(F)F)cccc3c2-c2ccncc2)cc1 | 32
* Fc1ccc(-c2nn3ccccc3c2-c2ccncc2)cc1 [GW434756X] | 18

* * *

assay: Volume of distribution at steady state in Lewis rat at 1 mg/kg, iv; assay type: ADME, organism-based; set-up: dose 1 mg/kg, route intravenous; conditions: in vivo, read-out: Vdss
Reported Metric: Vd

• Fc1ccc(-c2nn3c(OCC(F)(F)F)cccc3c2-c2ccncc2)cc1 = 5.4 L/kg
• Cc1ccn2nc(-c3ccc(F)cc3)c(-c3ccncc3)c2c1 = 2 L/kg
• Fc1ccc(-c2nn3cc(C(F)(F)F)ccc3c2-c2ccncc2)cc1 = 5.4 L/kg

* * *

assay: AUC in Lewis rat at 5 mg/kg, iv; format: ADME, organism-based; parameters: dose 5 mg/kg, route intravenous; conditions: plasma
Reported Metric: AUC (ng·h/mL)

* Fc1ccc(-c2nn3ccccc3c2-c2ccncc2)cc1 [GW434756X] | 1700

* * *

This section presents molecules with their documented half-life values.
experiment: Half life in Lewis rat at 1 mg/kg, iv; assay type: ADME, organism-based; design: dose 1 mg/kg, route intravenous; settings: in vivo
Reported Metric: half-life (h)

- Cc1ccn2nc(-c3ccc(F)cc3)c(-c3ccncc3)c2c1: 1.2
- Fc1ccc(-c2nn3cc(C(F)(F)F)ccc3c2-c2ccncc2)cc1: 2.5
- Fc1ccc(-c2nn3c(OCC(F)(F)F)cccc3c2-c2ccncc2)cc1: 2.1

* * *

This section presents compounds with their documented clearance values.
assay: Clearance in Lewis rat at 1 mg/kg, iv; format: ADME, organism-based; design: dose 1 mg/kg, route intravenous; settings: in vivo
Reported Metric: clearance (mL/min/kg)

* Cc1ccn2nc(-c3ccc(F)cc3)c(-c3ccncc3)c2c1 | 83
* Fc1ccc(-c2nn3c(OCC(F)(F)F)cccc3c2-c2ccncc2)cc1 | 40
* Fc1ccc(-c2nn3cc(C(F)(F)F)ccc3c2-c2ccncc2)cc1 | 34

* * *

biological target: Angiopoietin-1 receptor (Homo sapiens, UniProt Q02763)
Sequence (Q02763 whole entry): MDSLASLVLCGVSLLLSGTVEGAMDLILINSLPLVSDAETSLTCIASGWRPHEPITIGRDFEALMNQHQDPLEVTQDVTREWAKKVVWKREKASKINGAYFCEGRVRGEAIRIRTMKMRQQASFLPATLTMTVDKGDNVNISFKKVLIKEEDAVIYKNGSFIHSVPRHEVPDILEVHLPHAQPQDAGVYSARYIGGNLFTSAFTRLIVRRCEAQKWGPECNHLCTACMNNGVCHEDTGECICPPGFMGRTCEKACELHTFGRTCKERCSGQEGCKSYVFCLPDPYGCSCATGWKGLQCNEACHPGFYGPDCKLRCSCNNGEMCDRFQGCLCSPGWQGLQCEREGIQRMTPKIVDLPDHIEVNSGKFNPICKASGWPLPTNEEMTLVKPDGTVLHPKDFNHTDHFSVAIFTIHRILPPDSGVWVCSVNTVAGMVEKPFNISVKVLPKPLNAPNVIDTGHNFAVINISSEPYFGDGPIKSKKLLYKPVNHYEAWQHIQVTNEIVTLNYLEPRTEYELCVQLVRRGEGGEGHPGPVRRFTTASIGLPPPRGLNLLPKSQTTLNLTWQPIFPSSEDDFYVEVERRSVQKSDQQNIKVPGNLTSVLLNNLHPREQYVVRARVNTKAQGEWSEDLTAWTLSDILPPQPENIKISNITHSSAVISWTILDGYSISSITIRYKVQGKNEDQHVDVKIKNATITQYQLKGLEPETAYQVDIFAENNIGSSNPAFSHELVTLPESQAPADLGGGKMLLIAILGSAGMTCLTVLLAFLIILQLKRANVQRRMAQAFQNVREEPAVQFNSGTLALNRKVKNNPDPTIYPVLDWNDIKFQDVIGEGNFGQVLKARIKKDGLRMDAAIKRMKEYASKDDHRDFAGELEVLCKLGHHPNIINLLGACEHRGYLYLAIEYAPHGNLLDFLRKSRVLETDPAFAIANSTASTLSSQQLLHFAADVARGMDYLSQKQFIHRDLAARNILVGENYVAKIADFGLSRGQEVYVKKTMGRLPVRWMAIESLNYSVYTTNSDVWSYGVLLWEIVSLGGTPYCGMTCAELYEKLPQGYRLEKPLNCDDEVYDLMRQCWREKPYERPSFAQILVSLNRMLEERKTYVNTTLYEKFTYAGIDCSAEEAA
pIC50: −log10 of the molar value.
Reported Metric: pIC50

• Fc1ccc(-c2nn3ccccc3c2-c2ccncc2)cc1 [GW434756X] = < 5.00

* * *

target: Receptor tyrosine-protein kinase erbB-4 (Homo sapiens); test: Inhibition of ERBB4
Sequence (Q15303 whole entry): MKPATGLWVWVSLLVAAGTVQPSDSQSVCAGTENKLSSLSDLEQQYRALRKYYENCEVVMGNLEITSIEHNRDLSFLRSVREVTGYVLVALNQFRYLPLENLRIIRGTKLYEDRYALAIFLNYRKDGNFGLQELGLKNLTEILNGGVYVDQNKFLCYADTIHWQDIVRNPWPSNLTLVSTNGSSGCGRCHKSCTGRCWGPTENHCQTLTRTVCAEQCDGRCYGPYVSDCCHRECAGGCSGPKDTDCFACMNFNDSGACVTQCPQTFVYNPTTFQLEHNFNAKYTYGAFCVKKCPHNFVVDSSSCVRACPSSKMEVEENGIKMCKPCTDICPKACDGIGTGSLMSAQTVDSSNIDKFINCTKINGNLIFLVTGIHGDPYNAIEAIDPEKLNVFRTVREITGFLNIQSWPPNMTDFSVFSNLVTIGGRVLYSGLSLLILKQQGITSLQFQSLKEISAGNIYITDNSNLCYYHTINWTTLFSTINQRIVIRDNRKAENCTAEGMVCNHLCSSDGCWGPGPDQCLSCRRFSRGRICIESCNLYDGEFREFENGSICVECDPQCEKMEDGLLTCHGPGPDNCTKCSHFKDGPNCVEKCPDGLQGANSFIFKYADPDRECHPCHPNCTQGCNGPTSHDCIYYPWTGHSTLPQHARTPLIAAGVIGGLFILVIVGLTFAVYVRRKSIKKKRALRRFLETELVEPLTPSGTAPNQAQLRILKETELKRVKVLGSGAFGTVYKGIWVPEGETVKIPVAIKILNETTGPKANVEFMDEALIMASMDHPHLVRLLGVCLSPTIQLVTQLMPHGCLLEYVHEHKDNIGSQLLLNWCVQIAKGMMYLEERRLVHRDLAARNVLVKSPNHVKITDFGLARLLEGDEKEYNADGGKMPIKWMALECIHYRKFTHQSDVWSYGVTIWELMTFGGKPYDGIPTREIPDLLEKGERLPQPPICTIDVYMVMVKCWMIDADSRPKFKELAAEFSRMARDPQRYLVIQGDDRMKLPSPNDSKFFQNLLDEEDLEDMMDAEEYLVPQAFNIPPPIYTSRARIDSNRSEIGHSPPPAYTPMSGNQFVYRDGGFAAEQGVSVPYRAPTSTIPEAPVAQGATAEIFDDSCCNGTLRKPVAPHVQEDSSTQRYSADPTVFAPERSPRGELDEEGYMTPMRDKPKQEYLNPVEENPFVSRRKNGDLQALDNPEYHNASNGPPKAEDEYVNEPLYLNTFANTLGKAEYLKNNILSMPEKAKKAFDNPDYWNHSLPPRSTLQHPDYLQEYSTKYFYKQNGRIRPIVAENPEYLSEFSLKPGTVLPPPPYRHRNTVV
Reported Metric: IC50

- Fc1ccc(-c2nn3ccccc3c2-c2ccncc2)cc1 [GW434756X]: > 10 µM
